B1: tRNA (parent)
chain: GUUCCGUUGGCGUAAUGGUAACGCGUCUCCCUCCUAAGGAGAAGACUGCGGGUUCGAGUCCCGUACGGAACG

# Variants of: B1
# experimental.details: yeast fitness relative to wild type (ratio to wild type); higher = fitter; tRNA-Arg(CCU), competitive growth, 37 C, YPD
Fewer inactive variants are shown than the library holds.
measure.name: yeast fitness
Output spec: single numeric token, no unit.

Could you tell me which yeast fitness is on file for C5G G17A A40C U59C ?
0.723

C34A G67C ?
0.782

U35C G41C ?
0.718
